Attribution: PubChem BioAssay

- tested target: E3 ubiquitin-protein ligase XIAP (Homo sapiens) (UniProt P98170)
- Sequence (P98170 whole entry, looked up): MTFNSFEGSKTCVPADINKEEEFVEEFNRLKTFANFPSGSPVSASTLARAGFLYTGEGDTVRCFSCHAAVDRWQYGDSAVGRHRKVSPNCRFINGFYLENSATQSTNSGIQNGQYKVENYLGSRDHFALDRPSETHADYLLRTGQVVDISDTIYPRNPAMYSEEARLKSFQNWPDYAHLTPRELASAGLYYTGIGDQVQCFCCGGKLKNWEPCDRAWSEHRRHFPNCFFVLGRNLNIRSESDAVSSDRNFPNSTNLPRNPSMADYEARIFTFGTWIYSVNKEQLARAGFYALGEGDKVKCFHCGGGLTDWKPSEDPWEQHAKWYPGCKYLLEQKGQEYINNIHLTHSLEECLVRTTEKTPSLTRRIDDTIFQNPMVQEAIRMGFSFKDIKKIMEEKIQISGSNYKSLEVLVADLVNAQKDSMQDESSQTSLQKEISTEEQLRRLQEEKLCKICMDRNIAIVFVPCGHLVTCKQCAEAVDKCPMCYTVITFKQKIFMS
- test summary: XIAP binders, primary screen, biophysical, small-molecule microarray, fluorescence 635 nm (AID 1181);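 further: score merges 667 nm emission and signal to noise over triplicate slides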
- conditions: small-molecule microarray binding, higher = more signal
outcome measure: composite z-score

1. CO[C@@H]1COC(=O)[C@H](COCc2ccccc2)NC(=O)CC=C[C@@H](C)[C@H](OC)COC(=O)[C@H](COCc2ccccc2)NC(=O)CC=C[C@H]1C; 0.378
2. CCN1C(C)=C(C(=O)OC)[C@@H](c2ccccc2)N2C(=O)[C@](O)(C(=O)OC)[C@@H](c3ccccc3)C(C(C)=O)=C12; -0.0167
3. CO[C@@H]1COC(=O)[C@H](C)NC(=O)CC=C[C@@H](C)[C@H](NS(=O)(=O)c2ccc(C)cc2)COC(=O)CC=C[C@@H]1C; -0.0835
4. COCCOC(=O)N1C(=O)[C@@]2(c3cc(C#CCCO)ccc31)[C@H](c1ccc(O)cc1)N1[C@H](c3ccccc3)[C@H](c3ccccc3)OC(=O)[C@H]1[C@@H]2C(=O)Nc1nc2ccccc2s1; 0.267
5. CC(C)NC(=O)[C@@]1(Cc2ccccc2I)c2ccccc2C(=O)N(C2CCCCC2)[C@H]1c1ccc(CO)cc1; 0.106
6. Cc1ccc(S(=O)(=O)c2cc3oc2CC[C@@H](CO)NC(=O)N(C)Cc2cn(nn2)C[C@H](Cc2ccccc2)NC3=O)cc1; 0.0975
7. C#C[C@H](O[Si](C#Cc1ccccc1)(C(C)C)C(C)C)c1ccccc1; 0.0049
8. Cc1ccc(N2C(=O)c3ccccc3[C@@H](C(=O)NCc3ccccc3)[C@@H]2c2ccc(CO)cc2)nc1; 0.02
9. C[C@@H]1CC[C@H]2C(=O)N3[C@@H](CC[C@@H](C)[C@@H]3c3cccc(N4CCOCC4)c3)C(=O)N2[C@H]1c1cccc(Br)c1; -0.111
10. COc1ccc([Si](C)(C)[C@H]2[C@H](CCO)O[C@@]3(C(=O)N(Cc4ccc(N5CCCCC5=O)cc4)c4ccccc43)[C@@H]2C)cc1; 0.0223
11. O=C1O[C@H](c2ccccc2)[C@H](c2ccccc2)N2[C@H]1[C@@H](C(=O)Nc1nc3ccccc3s1)[C@]1(C(=O)Nc3ccc(C#CC4(O)CCCCCC4)cc31)[C@H]2c1ccc(O)cc1; -0.0426
12. O=C(O)[C@@H]1Cc2c([nH]c3ccccc23)[C@@H](c2ccccc2)N1; -0.127
13. [N-]=[N+]=NCc1ccccc1C[C@]1(C(N)=O)N=C(c2ccc(OCCCO)cc2)O[C@H]1c1ccccc1CN=[N+]=[N-]; 0.0685
14. COC(=O)c1ccc(C#CC(NP(=O)(c2ccccc2)c2ccccc2)c2ccccc2)cc1 (stereo not given); 0.063
15. CO[C@H]1COC(=O)CC=C[C@H](C)COC(=O)[C@@H](OCc2ccccc2)C=C[C@@H]1C; -0.22
